Values compiled from PubChem BioAssay AID1963843.

Would you mind telling me the reported viability, T/C of each entry?
Tested on: 616215-338-R-J1-PDC complex spheroid viability
assay-protocol: Anticancer human tumor 616215-338-R-J1-PDC patient-derived colon adenocarcinoma cell line growth inhibition [POLQ]
experimental-context: second compound 0.1 µM; first compound 0.316 µM; active compounds read low
Give bare numbers, in %.

Solved cases (2 shown):
// compound C=CC(=O)N1CCN(c2nc(=O)n(-c3c(C)ccnc3C(C)C)c3nc(-c4c(O)cccc4F)c(F)cc23)C(C)C1 (stereo not drawn) + Cc1cccc(N(C)C(=O)C2C(O)CCN2c2nc(C)cc(C(F)(F)F)c2C#N)c1 , assay 616215-338-R-J1-PDC complex spheroid viability, viability, T/C value: 88.2

616215-338-R-J1-PDC complex spheroid viability viability, T/C of CC(C)n1c(=O)n(C)c2cnc3cc(F)c(-c4ccc(OCCCN5CCCCC5)nc4)cc3c21 + Nc1ccc(C#CCN(C(=O)Cc2ncc(C(F)(F)F)cc2C(F)(F)F)c2ccc(F)cc2)nn1 is 110

As a next step, examine the compound that follows.
Here CCc1cc2c(N3CCc4c(cc(Cn5ccnc5)cc4-c4cn(C)nc4C(F)(F)F)C3=O)ccnc2c(OC)n1 + COC1C(OC(N)=O)C(O)C(Oc2ccc3c(O)c(NC(=O)c4ccc(O)c(CC=C(C)C)c4)c(=O)oc3c2C)OC1(C)C was tested on 616215-338-R-J1-PDC complex spheroid viability, and its viability, T/C came to 92.9

====

Test system: 616215-338-R-J1-PDC complex spheroid viability
assay-protocol: Anticancer human tumor 616215-338-R-J1-PDC cell line growth inhibition [POLQ];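 note: spheroids exposed to compounds for one week before readout; percent viability relative to DMSO vehicle wells taken as 100%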
experimental-context: second compound 0.1 µM; first compound 0.1 µM; active compounds read low
Could you please report measured viability, T/C for the items listed next?
Numbers only, in %.

Solved entries:
get_value(item= C=CCn1c(=O)c2cnc(Nc3ccc(N4CCN(C)CC4)cc3)nc2n1-c1cccc(C(C)(C)O)n1 + COC1C(OC(N)=O)C(O)C(Oc2ccc3c(O)c(NC(=O)c4ccc(O)c(CC=C(C)C)c4)c(=O)oc3c2C)OC1(C)C , readout=viability, T/C) returns 103

Record summary for C#Cc1c(F)ccc2cc(O)cc(-c3ncc4c(N5CC6CCC(C5)N6)nc(OCC56CCCN5CC(F)C6)nc4c3F)c12 (stereo not given) + Cc1cccc(N(C)C(=O)C2C(O)CCN2c2nc(C)cc(C(F)(F)F)c2C#N)c1 : reported viability, T/C = 110

Sure, the documented viability, T/C for CCc1cc2c(N3CCc4c(cc(Cn5ccnc5)cc4-c4cn(C)nc4C(F)(F)F)C3=O)ccnc2c(OC)n1 + Nc1ccc(C#CCN(C(=O)Cc2ncc(C(F)(F)F)cc2C(F)(F)F)c2ccc(F)cc2)nn1 is 120

What the record says about CC1COCCN1c1cc(-c2ccnn2C)c2ccnc(-c3ccn[nH]3)c2n1 (stereo not given) + Nc1ccc(C#CCN(C(=O)Cc2ncc(C(F)(F)F)cc2C(F)(F)F)c2ccc(F)cc2)nn1 : viability, T/C is 60.6

Others:
// CC1COCCN1c1cc(C2(S(C)(=N)=O)CC2)nc(-c2ccnc3[nH]ccc23)n1 (stereo not given) + Nc1ccc(C#CCN(C(=O)Cc2ncc(C(F)(F)F)cc2C(F)(F)F)c2ccc(F)cc2)nn1 : viability, T/C value = 104

====

Test system: 616215-338-R-J1-PDC complex spheroid viability
assay-protocol: Anticancer human tumor 616215-338-R-J1-PDC cell line growth inhibition [POLQ];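 note: spheroids exposed to compounds for one week before readout; percent viability relative to DMSO vehicle wells taken as 100%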
experimental-context: second compound 10 µM; first compound 0.01 µM; active compounds read low
Could you please report measured viability, T/C for the items listed next?

// known answers, use as guide
response.value for COc1cccc(OCCCN)c1-c1cc(Nc2cnc(C#N)cn2)n[nH]1 + Nc1ccc(C#CCN(C(=O)Cc2ncc(C(F)(F)F)cc2C(F)(F)F)c2ccc(F)cc2)nn1 (field: viability, T/C) = 69.3%

The reported viability, T/C of the molecule C=CCn1c(=O)c2cnc(Nc3ccc(N4CCN(C)CC4)cc3)nc2n1-c1cccc(C(C)(C)O)n1 + Cc1cccc(N(C)C(=O)C2C(O)CCN2c2nc(C)cc(C(F)(F)F)c2C#N)c1 was 90.1%

Sample Cn1ncnc1[C@H]1c2n[nH]c(=O)c3cc(F)cc(c23)N[C@@H]1c1ccc(F)cc1 + COC1C(OC(N)=O)C(O)C(Oc2ccc3c(O)c(NC(=O)c4ccc(O)c(CC=C(C)C)c4)c(=O)oc3c2C)OC1(C)C ; viability, T/C observed: 117%

Entry CC[C@@]1(O)C(=O)OCc2c1cc1n(c2=O)Cc2cc3c(CN(C)C)c(O)ccc3nc2-1 + Nc1ccc(C#CCN(C(=O)Cc2ncc(C(F)(F)F)cc2C(F)(F)F)c2ccc(F)cc2)nn1 , viability, T/C reported as 94.2%

GET /value?item= CC[C@@]1(O)C(=O)OCc2c1cc1n(c2=O)Cc2cc3c(CN(C)C)c(O)ccc3nc2-1 + Cc1cccc(N(C)C(=O)C2C(O)CCN2c2nc(C)cc(C(F)(F)F)c2C#N)c1 &field=viability, T/C returns 103%

Items follow; give viability, T/C for each.
1. COc1cccc(OCCCN)c1-c1cc(Nc2cnc(C#N)cn2)n[nH]1 + Cc1cccc(N(C)C(=O)C2C(O)CCN2c2nc(C)cc(C(F)(F)F)c2C#N)c1
2. Cn1ncnc1[C@H]1c2n[nH]c(=O)c3cc(F)cc(c23)N[C@@H]1c1ccc(F)cc1 + Cc1cccc(N(C)C(=O)C2C(O)CCN2c2nc(C)cc(C(F)(F)F)c2C#N)c1
3. C=CCn1c(=O)c2cnc(Nc3ccc(N4CCN(C)CC4)cc3)nc2n1-c1cccc(C(C)(C)O)n1 + Nc1ccc(C#CCN(C(=O)Cc2ncc(C(F)(F)F)cc2C(F)(F)F)c2ccc(F)cc2)nn1
4. CCc1c2c(nc3ccc(O)cc13)-c1cc3c(c(=O)n1C2)COC(=O)[C@]3(O)CC + Nc1ccc(C#CCN(C(=O)Cc2ncc(C(F)(F)F)cc2C(F)(F)F)c2ccc(F)cc2)nn1
5. CCc1c2c(nc3ccc(O)cc13)-c1cc3c(c(=O)n1C2)COC(=O)[C@]3(O)CC + COC1C(OC(N)=O)C(O)C(Oc2ccc3c(O)c(NC(=O)c4ccc(O)c(CC=C(C)C)c4)c(=O)oc3c2C)OC1(C)C
6. CCc1c2c(nc3ccc(O)cc13)-c1cc3c(c(=O)n1C2)COC(=O)[C@]3(O)CC + Cc1cccc(N(C)C(=O)C2C(O)CCN2c2nc(C)cc(C(F)(F)F)c2C#N)c1
7. CC[C@@]1(O)C(=O)OCc2c1cc1n(c2=O)Cc2cc3c(CN(C)C)c(O)ccc3nc2-1 + COC1C(OC(N)=O)C(O)C(Oc2ccc3c(O)c(NC(=O)c4ccc(O)c(CC=C(C)C)c4)c(=O)oc3c2C)OC1(C)C
8. Cn1ncnc1[C@H]1c2n[nH]c(=O)c3cc(F)cc(c23)N[C@@H]1c1ccc(F)cc1 + Nc1ccc(C#CCN(C(=O)Cc2ncc(C(F)(F)F)cc2C(F)(F)F)c2ccc(F)cc2)nn1

[A]
1. 81.3%
2. 102%
3. 91.4%
4. 47.8%
5. 65.5%
6. 68.7%
7. 100%
8. 90.9%

Below is a list of molecules. For each, state its recorded viability, T/C.
1. C=CCn1c(=O)c2cnc(Nc3ccc(N4CCN(C)CC4)cc3)nc2n1-c1cccc(C(C)(C)O)n1 + COC1C(OC(N)=O)C(O)C(Oc2ccc3c(O)c(NC(=O)c4ccc(O)c(CC=C(C)C)c4)c(=O)oc3c2C)OC1(C)C
2. COc1cccc(OCCCN)c1-c1cc(Nc2cnc(C#N)cn2)n[nH]1 + COC1C(OC(N)=O)C(O)C(Oc2ccc3c(O)c(NC(=O)c4ccc(O)c(CC=C(C)C)c4)c(=O)oc3c2C)OC1(C)C

[A]
100%
97%

====

System: 616215-338-R-J1-PDC complex spheroid viability
assay-protocol: Anticancer human tumor 616215-338-R-J1-PDC cell line growth inhibition [POLQ];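 note: spheroids exposed to compounds for one week before readout; percent viability relative to DMSO vehicle wells taken as 100%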
experimental-context: second compound 1 µM; first compound 0.316 µM; active compounds read low
reported-endpoint: viability, T/C (%)
Give bare numbers, in %.

# example entries with known answers
Noted for O=c1[nH]cc(F)c(=O)[nH]1 + Nc1ccc(C#CCN(C(=O)Cc2ncc(C(F)(F)F)cc2C(F)(F)F)c2ccc(F)cc2)nn1 : its viability, T/C reads 57.5

// COc1cc2cc(C(=O)CCC(=O)O)sc2cc1OC + Cc1cccc(N(C)C(=O)C2C(O)CCN2c2nc(C)cc(C(F)(F)F)c2C#N)c1 : viability, T/C value = 95.2

***
The value of viability, T/C measured for the compound O=C(c1cc(Cc2n[nH]c(=O)c3ccccc23)ccc1F)N1CCN(C(=O)C2CC2)CC1 + Cc1cccc(N(C)C(=O)C2C(O)CCN2c2nc(C)cc(C(F)(F)F)c2C#N)c1 turned out to be 105
